- Tested on: ECV-304
- assay-remarks: Protection against H2O2-induced toxicity in human ECV304 cells assessed as proliferation rate at 25 uM pretreated for 24 hrs before H2O2 challenge measured after 12 hrs by MTT assay
- Type: functional
- protocol-conditions: read-out: Activity

>  <smiles-code>
Cc1nc(C)c(COc2c(Br)cc(Br)cc2/C=C/C(=O)O)nc1C

>  <growth at 25 µM / %>
4.21

$$$$
>  <smiles-code>
Cc1nc(C)c(COc2ccc(/C=C/C(=O)O)cc2)nc1C

>  <growth at 25 µM / %>
2.01

$$$$
>  <smiles-code>
COc1cc(/C=C/C(=O)O)cc(OC)c1OCc1nc(C)c(C)nc1C

>  <growth at 25 µM / %>
-33.8

$$$$
>  <smiles-code>
Cc1nc(C)c(COc2ccccc2/C=C/C(=O)O)nc1C

>  <growth at 25 µM / %>
370

$$$$
>  <smiles-code>
COc1cccc(/C=C/C(=O)O)c1OCc1nc(C)c(C)nc1C

>  <growth at 25 µM / %>
-0.71

$$$$
>  <smiles-code>
Cc1nc(C)c(COc2ccc(Cl)cc2/C=C/C(=O)O)nc1C

>  <growth at 25 µM / %>
-44

$$$$
>  <smiles-code>
Cc1nc(C)c(COc2cccc(/C=C/C(=O)O)c2)nc1C

>  <growth at 25 µM / %>
378

$$$$
>  <smiles-code>
CCOC(=O)/C=C/c1cc(Br)c(OCc2nc(C)c(C)nc2C)c(Br)c1

>  <growth at 25 µM / %>
57

$$$$
>  <smiles-code>
CCOC(=O)/C=C/c1cccc(OCc2nc(C)c(C)nc2C)c1

>  <growth at 25 µM / %>
-180

$$$$
>  <smiles-code>
CCOC(=O)/C=C/c1ccc(OCc2nc(C)c(C)nc2C)cc1

>  <growth at 25 µM / %>
-10.8

$$$$
